experiment: recombinant UMI read abundance after kanamycin selection (control-corrected) (log10(CPM+1)); higher = more efficient recombination; extreme values may be limits of the assay; sequences stand for … in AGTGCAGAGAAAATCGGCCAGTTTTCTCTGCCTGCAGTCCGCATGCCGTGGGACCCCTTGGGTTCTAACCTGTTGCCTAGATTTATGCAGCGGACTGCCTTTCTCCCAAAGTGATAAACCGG…AGGTTGGTTTCACT; site = the 11-nt donor
Decision: recombinant UMI read abundance (log10) compared against 0.8; not below it gives Met, below it gives Not met.

AGAAAGCCATGGACCGGTTTTCCCGGTAATCCGTATTTGCT (site AGAAAGCCTAG) : Not met
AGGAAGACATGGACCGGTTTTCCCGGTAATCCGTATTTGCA (site AGGATAACTTG) : Met
AAGCACACATGGACCGGTTTTCCCGGTAATCCGTATTTGGG (site AAGCACTCTCC) : Not met
TCATACTCATGGACCGGTTTTCCCGGTAATCCGTATTTGGA (site TCATACTCTTA) : Not met

###

experiment: recombinant barcode read abundance after kanamycin selection (control-corrected) (log10(CPM+1)); higher = more efficient recombination; sequences stand for … in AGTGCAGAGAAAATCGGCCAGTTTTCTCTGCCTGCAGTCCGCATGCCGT…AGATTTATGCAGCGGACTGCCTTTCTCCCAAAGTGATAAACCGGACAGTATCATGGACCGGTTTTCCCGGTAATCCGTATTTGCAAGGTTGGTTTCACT; site = the 11-nt target
Grouping rule (recombinant barcode read abundance (log10)): interval 1: < 0.1; interval 2: ≥ 0.1 and < 0.4; interval 3: ≥ 0.4

GCGAACACTTGGGTTCTAACCTGTTGCTT (site GCGAACACTAA) : interval 3
GCTCGTGCTTGGGTTCTAACCTGTTGCCT (site GCCCGTGCTAG) : interval 2
AGAGGACCTTGGGTTCTAACCTGTTGCCT (site TGAGCACCTAG) : interval 2
TAGGTCCCTTGGGTTCTAACCTGTTGCAT (site TAGGTTCCTAT) : interval 2
TCTAACCCTTGGGTTCTAACCTGTTGCAT (site TCTAACCCTAT) : interval 2
GGCATCCCTTGGGTTCTAACCTGTTGCTA (site GGCATCCCTTA) : interval 3
TCGGTGACTTGGGTTCTAACCTGTTGCCT (site GCGGTGACTAG) : interval 1
GGGGACCCTTGGGTTCTAACCTGTTGCGG (site GGGGACCCTAC) : interval 3
ACCCGTCCTTGGGTTCTAACCTGTTGCAG (site ACCCGTCCTCT) : interval 3
AGTCGATCTTGGGTTCTAACCTGTTGCTT (site AGTCGATCTAA) : interval 3
GATCTGCCTTGGGTTCTAACCTGTTGCCT (site GATCAGCCTAG) : interval 2
AGGAACCCTTGGGTTCTAACCTGTTGCTC (site AGGAACCCTCA) : interval 3
CAATGGGCTTGGGTTCTAACCTGTTGCCG (site CAATGGGCTCG) : interval 3
TATTATACTTGGGTTCTAACCTGTTGCTT (site TATTATACTAA) : interval 1
TGTGAGTCTTGGGTTCTAACCTGTTGCAT (site TGTGAGTCTAG) : interval 2
CTATCGACTTGGGTTCTAACCTGTTGCCT (site CTATGGACTAG) : interval 2
GTTTGCCCTTGGGTTCTAACCTGTTGCTT (site GTTTGCCCTAA) : interval 1
GCTGAGTCTTGGGTTCTAACCTGTTGCTA (site GCTGAGTCTTA) : interval 3
GTGAAGACTTGGGTTCTAACCTGTTGCTT (site AACGTACCTCT) : interval 2
CTCTGGGCTTGGGTTCTAACCTGTTGCCT (site CTCTCGGCTAG) : interval 2
TCAGAATCTTGGGTTCTAACCTGTTGCCT (site TCAGAATCTAG) : interval 3
AATGGGACTTGGGTTCTAACCTGTTGCGA (site AATGGGACTCA) : interval 2
GGGAACCCTTGGGTTCTAACCTGTTGCTT (site GGGAACCCTTA) : interval 2
CAAACAACTTGGGTTCTAACCTGTTGCCT (site CAAACATCTAG) : interval 2
GTTTGATCTTGGGTTCTAACCTGTTGCCT (site GTTTGATCTAG) : interval 2
CAATGGTCTTGGGTTCTAACCTGTTGCCT (site CAATGGTCTAC) : interval 1
ACCCTAGCTTGGGTTCTAACCTGTTGCCA (site ACCCTAGCTTG) : interval 3
AGAGTCCCTTGGGTTCTAACCTGTTGCGG (site AGAGTCCCTCC) : interval 3
GGCGTCCCTTGGGTTCTAACCTGTTGCCT (site GGCTTCCCTAG) : interval 1
CTTGGGCCTTGGGTTCTAACCTGTTGCGG (site GTTGGGGCTCC) : interval 1
TTGACGACTTGGGTTCTAACCTGTTGCCG (site CACCGAGCTTA) : interval 2
TTGGGTTCTTGGGTTCTAACCTGTTGCCT (site TTGGGTGCTCG) : interval 1
CTCCGATCTTGGGTTCTAACCTGTTGCGG (site CTCCCATCTAC) : interval 1
GAGTACCCTTGGGTTCTAACCTGTTGCCT (site GTGTACCCTAG) : interval 1
TCCATCCCTTGGGTTCTAACCTGTTGCCT (site TCAATCCCTAG) : interval 1
AGCTTAGCTTGGGTTCTAACCTGTTGCCT (site AGCTTAGCTGG) : interval 2
CCGTAGCCTTGGGTTCTAACCTGTTGCCT (site CCGCAGCCTAG) : interval 2
AGGCGCCCTTGGGTTCTAACCTGTTGCAC (site AGGCGCCCTGT) : interval 3
GAGCGCTCTTGGGTTCTAACCTGTTGCCG (site GAGCGCTCTCG) : interval 3
TCGAGTACTTGGGTTCTAACCTGTTGCCT (site TCGAGTGCTAG) : interval 1

###

experiment: recombinant UMI read abundance after kanamycin selection (control-corrected) (log10(CPM+1)); higher = more efficient recombination; extreme values may be limits of the assay; sequences stand for … in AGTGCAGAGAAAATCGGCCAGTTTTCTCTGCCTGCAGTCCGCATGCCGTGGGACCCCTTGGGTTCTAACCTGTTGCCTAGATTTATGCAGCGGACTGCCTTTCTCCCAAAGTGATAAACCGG…AGGTTGGTTTCACT; site = the 11-nt donor
measured.property: recombinant UMI read abundance (log10)

GGATTGACATGGACCGGTTTTCCCGGTAATCCGTATTTGTT (site GGATTGACTAA) : 0.888
CGGGAACCATGGACCGGTTTTCCCGGTAATCCGTATTTGCT (site CGGGAACCTAT) : 0
CCGACATCATGGACCGGTTTTCCCGGTAATCCGTATTTGCT (site CGGACATCTAG) : 0
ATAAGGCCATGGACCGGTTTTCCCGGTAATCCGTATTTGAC (site ATAGGGCCTGT) : 0
TAATGACCATGGACCGGTTTTCCCGGTAATCCGTATTTGGG (site TAATGAACTCC) : 0.00176
GCCACCCCATGGACCGGTTTTCCCGGTAATCCGTATTTGTA (site GCCACCCCTTA) : 0
CCAGATGCATGGACCGGTTTTCCCGGTAATCCGTATTTGAT (site CCAGATGCTAT) : 1.26
GCTTACCCATGGACCGGTTTTCCCGGTAATCCGTATTTGAT (site GCTTTCCCTAT) : 0
GTTGTTCCATGGACCGGTTTTCCCGGTAATCCGTATTTGCT (site GTTGTTCCTAA) : 0.0109
CCACGTGCATGGACCGGTTTTCCCGGTAATCCGTATTTGAT (site CCAAGTGCTAT) : 0.0041
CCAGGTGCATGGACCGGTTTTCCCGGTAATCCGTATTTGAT (site CCAGGTGCTAA) : 0.0192
CTAGCGCCATGGACCGGTTTTCCCGGTAATCCGTATTTGTG (site CGAGCGCCTCA) : 0.00935
CATATTCCATGGACCGGTTTTCCCGGTAATCCGTATTTGCT (site CATATTCCTAG) : 0
AGGTTCCCATGGACCGGTTTTCCCGGTAATCCGTATTTGTT (site AGGTTCCCTTA) : 0
ATAGCCTCATGGACCGGTTTTCCCGGTAATCCGTATTTGCG (site ATAGCCTCTCG) : 2.52
ACACATCCATGGACCGGTTTTCCCGGTAATCCGTATTTGAG (site ACACATCCTGT) : 0
CAATGGCCATGGACCGGTTTTCCCGGTAATCCGTATTTGCA (site AAATGGCCTTG) : 0
CAGTAGACATGGACCGGTTTTCCCGGTAATCCGTATTTGGG (site CAGTCGACTCC) : 0.00641
